Tested on: O. ochengi microfilariae
Method: microbe, parasite or virus in culture
Parameters: species or system Onchocerca ochengi
Run parameters: Onchocerca ochengi, 48 h, read-out: LC50/48 h
Hi! Just check whether LC50 is below 2 µg/mL. Below gives y, equal or above gives n.

{"columns": ["Compound", "Label"],
 "data": [
  ["CCCSc1ccc2nc(NC(=O)OC)[nH]c2c1 [Albendazole, reference compound]", "n"]
]}

Lab note: confirm whether the reported LC50 for this compound is below 2 µg/mL, equality not counting. compound: c1ccc([C@H]2CN3CCSC3=N2)cc1 [Levamisole, reference compound]
y

Lab note: confirm whether the reported LC50 for this compound is below 2 µg/mL, equality not counting. compound: O=C(OC1Cc2c(O)cc(O)cc2OC1c1ccc(O)c(O)c1)c1cc(O)c(O)c(O)c1 (single isomer, unassigned; (-)) [ECG, (−)-epicatechin-3-O-gallate]
y

Lab note: confirm whether the reported LC50 for this compound is below 2 µg/mL, equality not counting. compound: Oc1cc(O)c2c(c1)O[C@H](c1cc(O)c(O)c(O)c1)[C@@H](O)C2 [GC, (+)-gallocatechin]
n

Lab note: confirm whether the reported LC50 for this compound is below 2 µg/mL, equality not counting. compound: O=C(OC1Cc2c(O)cc(O)cc2OC1c1cc(O)c(O)c(O)c1)c1cc(O)c(O)c(O)c1 (single isomer, unassigned; (-)) [EGCG, (−)-epigallocatechin-3-O-gallate]
y

Lab note: confirm whether the reported LC50 for this compound is below 2 µg/mL, equality not counting. compound: O=C(O[C@H]1Cc2c(O)cc(O)cc2O[C@@H]1c1ccc(O)c(O)c1)c1cc(O)c(O)c(O)c1 [CG, (+)-catechin-3-O-gallate]
n

Lab note: confirm whether the reported LC50 for this compound is below 2 µg/mL, equality not counting. compound: Oc1cc(O)c2c(c1)O[C@H](c1cc(O)c(O)c(O)c1)[C@H](O)C2 [EGC, (−)-epigallocatechin]
n

----------
System: C. elegans N2 Bristol WT
Method: microbe, parasite or virus in culture
Run parameters: Caenorhabditis elegans, 48 h, read-out: LC50/48 h (in brackets)
Hi! Just check whether LC50 is below 200 µM. Below gives Condition met, equal or above gives Condition not met.

{"columns": ["Compound", "Label"],
 "data": [
  ["c1ccc([C@H]2CN3CCSC3=N2)cc1 [Levamisole, reference compound]", "Condition met"],
  ["O=C(OC1Cc2c(O)cc(O)cc2OC1c1cc(O)c(O)c(O)c1)c1cc(O)c(O)c(O)c1 (single isomer, unassigned; (-)) [EGCG, (−)-epigallocatechin-3-O-gallate]", "Condition met"],
  ["Oc1cc(O)c2c(c1)O[C@H](c1cc(O)c(O)c(O)c1)[C@@H](O)C2 [GC, (+)-gallocatechin]", "Condition not met"]
]}

Lab note: confirm whether the reported LC50 for this compound is below 200 µM, equality not counting. compound: CCCSc1ccc2nc(NC(=O)OC)[nH]c2c1 [Albendazole, reference compound]
Condition met

----------
Measured LC50, listed per entry for reference.
Tested on: O. ochengi microfilariae
Method: microbe, parasite or virus in culture
Set-up: species or system Onchocerca ochengi
Run parameters: Onchocerca ochengi, 48 h, read-out: LC50/48 h (in brackets)
All answers are understood in µM, so give the number only.

Below, each entry is followed by its recorded LC50 result.
{"columns": ["Compound", "Measured target", "LC50 (µM)"],
 "data": [
  ["O=C(OC1Cc2c(O)cc(O)cc2OC1c1ccc(O)c(O)c1)c1cc(O)c(O)c(O)c1 (single isomer, unassigned; (-)) [ECG, (−)-epicatechin-3-O-gallate]", "O. ochengi microfilariae", 2.2],
  ["CCCSc1ccc2nc(NC(=O)OC)[nH]c2c1 [Albendazole, reference compound]", "O. ochengi microfilariae", 7.8],
  ["Oc1cc(O)c2c(c1)O[C@H](c1cc(O)c(O)c(O)c1)[C@H](O)C2 [EGC, (−)-epigallocatechin]", "O. ochengi microfilariae", 10.6],
  ["O=C(O[C@H]1Cc2c(O)cc(O)cc2O[C@@H]1c1ccc(O)c(O)c1)c1cc(O)c(O)c(O)c1 [CG, (+)-catechin-3-O-gallate]", "O. ochengi microfilariae", 9.4],
  ["O=C(OC1Cc2c(O)cc(O)cc2OC1c1cc(O)c(O)c(O)c1)c1cc(O)c(O)c(O)c1 (single isomer, unassigned; (-)) [EGCG, (−)-epigallocatechin-3-O-gallate]", "O. ochengi microfilariae", 2.8],
  ["c1ccc([C@H]2CN3CCSC3=N2)cc1 [Levamisole, reference compound]", "O. ochengi microfilariae", 5.1]
]}

Consider the additional compound presented here.
// fetch LC50 given entry Oc1cc(O)c2c(c1)O[C@H](c1cc(O)c(O)c(O)c1)[C@@H](O)C2 [GC, (+)-gallocatechin]
10.4
